Experiment: Solubility of inhibitors in different solvents
Format: physicochemical
Conditions: organic solvent or mixture, thermodynamic from solid; PEG400, 40°C; read-out: Solubility
TEST_READOUT: solubility at 24 h

The molecule listed as O=C(Nc1ccc(OC(F)(F)F)cc1)N[C@H]1CC[C@H](Oc2ccc(C(=O)O)cc2)CC1 has a reported solubility at 24 h of 57 mM

---

Test: Solubility of inhibitors in different solvents
Type: physicochemical
Conditions: organic solvent or mixture, thermodynamic from solid; Propylene glycol, 30°C; read-out: Solubility in mg/mL
TEST_READOUT: solubility at 24 h

The compound listed as O=C(Nc1ccc(OC(F)(F)F)cc1)N[C@H]1CC[C@H](Oc2ccc(C(=O)O)cc2)CC1 has a reported solubility at 24 h of 4 mg/mL

---

Experiment: Solubility of inhibitors in different solvents
Type: physicochemical
Details: organic solvent or mixture, thermodynamic from solid; Ethanol, 40°C; read-out: Solubility
TEST_READOUT: solubility at 24 h

The compound listed as O=C(Nc1ccc(OC(F)(F)F)cc1)N[C@H]1CC[C@H](Oc2ccc(C(=O)O)cc2)CC1 has a reported solubility at 24 h of 32 mM

---

Test: Microsomal stability
Type: in vitro ADME, dog
Settings: 1 μM inhibitor, microsomes 1 mg/mL, without NADPH, 37°C, 30 min; compound remaining, average ± SD (n = 3)
Procedure: The stability of the sEH inhibitors was determined using liver microsomes as described ([24]). […] After 30 min at 37°C, the reaction was stopped by the addition of one volume of methanol containing CUDA (200 nM) as surrogate. The amount of remaining inhibitor was determined by LC/MS/MS. The stability is reported as a percentage of compound remaining after 30 min in these conditions. […]
TEST_READOUT: Stability (% without microsomes) Dog liver microsomes NADPH – (%)
A number alone suffices; assume %.

The molecule listed as O=C(Nc1ccc(OC(F)(F)F)cc1)N[C@H]1CC[C@H](Oc2ccc(C(=O)O)cc2)CC1 has a reported Stability (% without microsomes) Dog liver microsomes NADPH – of 104

The molecule listed as O=C(NCCCCOc1ccc(F)cc1)NC12CC3CC(CC(C3)C1)C2 has a reported Stability (% without microsomes) Dog liver microsomes NADPH – of 87

The molecule listed as N#CNC(=O)CCCCCCCCCCCNC(=O)NC12CC3CC(CC(C3)C1)C2 has a reported Stability (% without microsomes) Dog liver microsomes NADPH – of 84

The molecule listed as O=C(O)CCCCCCCCCCCNC(=O)NC12CC3CC(CC(C3)C1)C2 has a reported Stability (% without microsomes) Dog liver microsomes NADPH – of 94

---

Please go through the items and note down their Stability (% without microsomes) Cat liver microsomes NADPH –.
Assay: Microsomal stability
Assay type: in vitro ADME, cat
Conditions: 1 μM inhibitor, microsomes 1 mg/mL, without NADPH, 37°C, 30 min; compound remaining, average ± SD (n = 3)
A number alone suffices; assume %.

The compound listed as O=C(Nc1ccc(OC(F)(F)F)cc1)N[C@H]1CC[C@H](Oc2ccc(C(=O)O)cc2)CC1 has a reported Stability (% without microsomes) Cat liver microsomes NADPH – of 103

The compound listed as O=C(NCCCCOc1ccc(F)cc1)NC12CC3CC(CC(C3)C1)C2 has a reported Stability (% without microsomes) Cat liver microsomes NADPH – of 101

The compound listed as O=C(O)CCCCCCCCCCCNC(=O)NC12CC3CC(CC(C3)C1)C2 has a reported Stability (% without microsomes) Cat liver microsomes NADPH – of 105

The compound listed as N#CNC(=O)CCCCCCCCCCCNC(=O)NC12CC3CC(CC(C3)C1)C2 has a reported Stability (% without microsomes) Cat liver microsomes NADPH – of 5
